- protocol.summary: Effect on fatty acid composition in human myotubes assessed as intracellular SFA level at 30 uM after 96 hrs (Rvb= 36.16%)
- Assay type: functional
Entries and their measured Activity follow.
A number alone suffices; assume mol%.

>>> result_number("CCCCCCCCCCCCCCSCC(=O)OC[C@@H](O)COP(=O)([O-])OCC[N+](C)(C)C")
23.57
>>> result_number("CCCCCCCCCCCCCCSCC(=O)OC[C@H](COP(=O)([O-])OCC[N+](C)(C)C)OC(=O)CSCCCCCCCCCCCCCC [PHOSPHATIDYLCHOLINE]")
31.79
>>> result_number("CCCCCCC#CCCCCCCSCC(=O)O")
36.3

// returns reported Activity for input CCCCCCCCCCCCCCSCC(=O)OC[C@@H](O)CO
22.3

What about this compound? CCCCCCCCCCCCCCSCC(=O)O [TETRADECYLTHIOACETIC ACID]
18.25

From: ChEMBL document CHEMBL3763093
